Protocol: Stability in rat plasma assessed as half life at 150 ug/l measured up to 60 mins by HPLC analysis
Type: ADME, cell-free
Where a SMILES comes first, the peptide text is derived from it.

{"Molecule": "CC(C)C[C@H](NC(=O)[C@H](Cc1ccccc1)NC(=O)[C@H](CS)NC(=O)[C@H](CC(=O)O)NC(=O)[C@@H](N)C(C)C)C(=O)N[C@@H](CO)C(=O)N[C@@H](CCCNC(=N)N)C(=O)N1CCC[C@H]1C(=O)N[C@H](C(=O)N[C@@H](CCC(=O)O)C(=O)N[C@@H](CCCCN)C(=O)N[C@H](C(=O)O)[C@@H](C)O)[C@@H](C)O (H-VDCFLSRPTEKT-OH)", "Value Unit": "min", "half-life at 150 ug/l": 5}

----------
System Tested: Gap junction alpha-1 protein (Homo sapiens)
Protocol: Inhibition of Cx43 in hypoxic-acidic ion-shifted ringers solution-induced human cerebral microvascular endothelial cell model of ischaemic injury assessed as ATP release at 10 uM measured after 2 hrs by luciferin-luciferase based luminescence assay relative to control
Activity calls are given as the source filed them. The rule behind the calls is not given here. Where a SMILES comes first, the peptide text is derived from it. The star is where a group is joined. Ethyl(2-stearoyloxy) = CCCCCCCCCCCCCCCCCC(=O)OCC*; Ethyl(2-palmitoyloxy) = CCCCCCCCCCCCCCCC(=O)OCC*; CH2CH2OBz(4-tBu) = CC(C)(C)c1ccc(C(=O)OCC*)cc1; Ethyl(2-decanoyloxy) = CCCCCCCCCC(=O)OCC*; Ethyl(2-butanoyloxy) = CCCC(=O)OCC*

{"Compound": "CCCC(=O)OCCSC[C@H](NC(=O)[C@H](CCCCN)NC(=O)[C@H](CCC(=O)O)NC(=O)[C@@H](NC(=O)[C@@H]1CCCN1C(=O)[C@H](CCCNC(=N)N)NC(=O)[C@H](CO)NC(=O)[C@H](CC(C)C)NC(=O)[C@H](Cc1ccccc1)NC(=O)[C@H](CS)NC(=O)[C@H](CC(=O)O)NC(=O)[C@@H](N)C(C)C)[C@@H](C)O)C(=O)O (H-VDCFLSRPTEKC(Ethyl(2-butanoyloxy))-OH)", "System Tested": "Gap junction alpha-1 protein (Homo sapiens)", "Activity": "inactive"}
{"Compound": "CCCCCCCCCC(=O)OCCSC[C@H](NC(=O)[C@H](CCCCN)NC(=O)[C@H](CCC(=O)O)NC(=O)[C@@H](NC(=O)[C@@H]1CCCN1C(=O)[C@H](CCCNC(=N)N)NC(=O)[C@H](CO)NC(=O)[C@H](CC(C)C)NC(=O)[C@H](Cc1ccccc1)NC(=O)[C@H](CS)NC(=O)[C@H](CC(=O)O)NC(=O)[C@@H](N)C(C)C)[C@@H](C)O)C(=O)O (H-VDCFLSRPTEKC(Ethyl(2-decanoyloxy))-OH)", "System Tested": "Gap junction alpha-1 protein (Homo sapiens)", "Activity": "inactive"}
{"Compound": "CC(C)C[C@H](NC(=O)[C@H](Cc1ccccc1)NC(=O)[C@H](CS)NC(=O)[C@H](CC(=O)O)NC(=O)[C@@H](N)C(C)C)C(=O)N[C@@H](CO)C(=O)N[C@@H](CCCNC(=N)N)C(=O)N1CCC[C@H]1C(=O)N[C@@H](CSCCOC(=O)c1ccc(C(C)(C)C)cc1)C(=O)N[C@@H](CCC(=O)O)C(=O)N[C@@H](CCCCN)C(=O)N[C@H](C(=O)O)[C@@H](C)O (H-VDCFLSRPC(CH2CH2OBz(4-tBu))EKT-OH)", "System Tested": "Gap junction alpha-1 protein (Homo sapiens)", "Activity": "inactive"}
{"Compound": "CCCCCCCCCCCCCCCC(=O)OCCSC[C@H](NC(=O)[C@H](CCCCN)NC(=O)[C@H](CCC(=O)O)NC(=O)[C@@H](NC(=O)[C@@H]1CCCN1C(=O)[C@H](CCCNC(=N)N)NC(=O)[C@H](CO)NC(=O)[C@H](CC(C)C)NC(=O)[C@H](Cc1ccccc1)NC(=O)[C@H](CS)NC(=O)[C@H](CC(=O)O)NC(=O)[C@@H](N)C(C)C)[C@@H](C)O)C(=O)O (H-VDCFLSRPTEKC(Ethyl(2-palmitoyloxy))-OH)", "System Tested": "Gap junction alpha-1 protein (Homo sapiens)", "Activity": "131%"}
{"Compound": "CCCCCCCCCCCCCCCCCC(=O)OCCSC[C@H](NC(=O)[C@H](CS)NC(=O)[C@H](CC(=O)O)NC(=O)[C@@H](N)C(C)C)C(=O)N[C@@H](CC(C)C)C(=O)N[C@@H](CO)C(=O)N[C@@H](CCCNC(=N)N)C(=O)N1CCC[C@H]1C(=O)N[C@H](C(=O)N[C@@H](CCC(=O)O)C(=O)N[C@@H](CCCCN)C(=O)N[C@H](C(=O)O)[C@@H](C)O)[C@@H](C)O (H-VDCC(Ethyl(2-stearoyloxy))LSRPTEKT-OH)", "System Tested": "Gap junction alpha-1 protein (Homo sapiens)", "Activity": "inactive"}

----------
System Tested: Gap junction alpha-1 protein (Homo sapiens) (UniProt P17302)
Sequence (P17302 whole entry): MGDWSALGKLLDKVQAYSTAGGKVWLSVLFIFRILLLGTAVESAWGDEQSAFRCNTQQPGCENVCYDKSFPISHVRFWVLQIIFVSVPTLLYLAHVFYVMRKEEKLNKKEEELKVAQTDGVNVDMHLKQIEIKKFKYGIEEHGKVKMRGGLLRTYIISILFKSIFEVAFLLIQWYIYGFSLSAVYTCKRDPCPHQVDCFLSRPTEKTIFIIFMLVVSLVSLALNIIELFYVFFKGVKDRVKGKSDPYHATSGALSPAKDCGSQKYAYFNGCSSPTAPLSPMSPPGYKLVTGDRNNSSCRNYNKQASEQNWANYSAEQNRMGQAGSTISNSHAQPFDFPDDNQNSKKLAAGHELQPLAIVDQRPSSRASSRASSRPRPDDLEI
Protocol: Inhibition of Cx43 in hypoxic-acidic ion-shifted ringers solution-induced human cerebral microvascular endothelial cell model of ischaemic injury assessed as ATP release at 10 uM measured after 2 hrs by luciferin-luciferase based luminescence assay relative to control
Activity calls are given as the source filed them. The calls are words filed in the database; no cut-off is given here. Where a SMILES comes first, the peptide text is derived from it. [ ]: non-standard residue; d: D form. The star is where a group is joined. Ethyl(2-stearoyloxy) = CCCCCCCCCCCCCCCCCC(=O)OCC*; Ethyl(2-palmitoyloxy) = CCCCCCCCCCCCCCCC(=O)OCC*; CH2CH2OBz(4-tBu) = CC(C)(C)c1ccc(C(=O)OCC*)cc1; Ethyl(2-butanoyloxy) = CCCC(=O)OCC*; Mpa = O=C(O)CCS
Measured Attribute: Activity

{"Compound": "CCCCCCCCCCCCCCCC(=O)OCCSCCC(=O)N[C@H](C(=O)N[C@@H](CC(=O)O)C(=O)N[C@@H](CS)C(=O)N[C@@H](Cc1ccccc1)C(=O)N[C@@H](CC(C)C)C(=O)N[C@@H](CO)C(=O)N[C@@H](CCCNC(=N)N)C(=O)N1CCC[C@H]1C(=O)N[C@H](C(=O)N[C@@H](CCC(=O)O)C(=O)N[C@@H](CCCCN)C(=O)N[C@H](C(=O)O)[C@@H](C)O)[C@@H](C)O)C(C)C ([Mpa](Ethyl(2-palmitoyloxy))VDCFLSRPTEKT-OH)", "System Tested": "Gap junction alpha-1 protein (Homo sapiens) (UniProt P17302)", "Reading": "inactive"}
{"Compound": "CC(C)C[C@H](NC(=O)[C@H](Cc1ccccc1)NC(=O)[C@H](CS)NC(=O)[C@H](CC(=O)O)NC(=O)[C@@H](N)CSCCOC(=O)c1ccc(C(C)(C)C)cc1)C(=O)N[C@@H](CO)C(=O)N[C@@H](CCCNC(=N)N)C(=O)N1CCC[C@H]1C(=O)N[C@H](C(=O)N[C@@H](CCC(=O)O)C(=O)N[C@@H](CCCCN)C(=O)N[C@H](C(=O)O)[C@@H](C)O)[C@@H](C)O (H-C(CH2CH2OBz(4-tBu))DCFLSRPTEKT-OH)", "System Tested": "Gap junction alpha-1 protein (Homo sapiens) (UniProt P17302)", "Reading": "inactive"}
{"Compound": "CCCCCCCCCCCCCCCCCC(=O)OCCSC[C@H](NC(=O)[C@@H]1CCCN1C(=O)[C@H](CCCNC(=N)N)NC(=O)[C@H](CO)NC(=O)[C@H](CC(C)C)NC(=O)[C@H](Cc1ccccc1)NC(=O)[C@H](CS)NC(=O)[C@H](CC(=O)O)NC(=O)[C@@H](N)C(C)C)C(=O)N[C@@H](CCC(=O)O)C(=O)N[C@@H](CCCCN)C(=O)N[C@H](C(=O)O)[C@@H](C)O (H-VDCFLSRPC(Ethyl(2-stearoyloxy))EKT-OH)", "System Tested": "Gap junction alpha-1 protein (Homo sapiens) (UniProt P17302)", "Reading": "102%"}
{"Compound": "CCCC(=O)OCCSC[C@H](NC(=O)[C@@H](NC(=O)[C@@H]1CCCN1C(=O)[C@H](CCCNC(=N)N)NC(=O)[C@H](CO)NC(=O)[C@H](CC(C)C)NC(=O)[C@H](Cc1ccccc1)NC(=O)[C@H](CS)NC(=O)[C@H](CC(=O)O)NC(=O)[C@@H](N)C(C)C)[C@@H](C)O)C(=O)N[C@@H](CCCCN)C(=O)N[C@H](C(=O)O)[C@@H](C)O (H-VDCFLSRPTC(Ethyl(2-butanoyloxy))KT-OH)", "System Tested": "Gap junction alpha-1 protein (Homo sapiens) (UniProt P17302)", "Reading": "32%"}
{"Compound": "CCCCCCCCCCCCCCCC(=O)OCCSC[C@H](NC(=O)[C@@H]1CCCN1C(=O)[C@H](CCCNC(=N)N)NC(=O)[C@H](CO)NC(=O)[C@H](CC(C)C)NC(=O)[C@H](Cc1ccccc1)NC(=O)[C@H](CS)NC(=O)[C@H](CC(=O)O)NC(=O)[C@@H](N)C(C)C)C(=O)N[C@@H](CCC(=O)O)C(=O)N[C@@H](CCCCN)C(=O)N[C@H](C(=O)O)[C@@H](C)O (H-VDCFLSRPC(Ethyl(2-palmitoyloxy))EKT-OH)", "System Tested": "Gap junction alpha-1 protein (Homo sapiens) (UniProt P17302)", "Reading": "102%"}
